# targetOrTestSystem: human CTLA-4 (human) (UniProt P16410)
# Sequence (P16410 36-223): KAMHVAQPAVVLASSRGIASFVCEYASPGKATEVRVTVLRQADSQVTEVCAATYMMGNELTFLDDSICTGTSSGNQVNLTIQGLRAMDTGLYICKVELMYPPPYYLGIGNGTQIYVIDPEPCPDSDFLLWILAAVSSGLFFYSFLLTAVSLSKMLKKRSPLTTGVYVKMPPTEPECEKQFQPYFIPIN
# testProtocol: flow cytometry, CHO cells expressing huCTLA-4
valueType: MFI at 33.3 nM (MFI)

binder	valueType	readoutUnit	testResult
variant CD80 IgV-Fc E35D/M47L (Fc fusion) VIHVTKEVKEVATLSCGHNVSVEELAQTRIYWQKDKKMVLTMMSGDLNIWPEYKNRTIFDITNNLSIVILALRPSDEGTYECVVLKYEKDAFKREHLAEVTLSVKAD	MFI at 33.3 nM	MFI	48000
variant CD80 IgV-Fc M47V/N48K/K89N (Fc fusion) VIHVTKEVKEVATLSCGHNVSVEELAQTRIYWQKEKKMVLTMMSGDVKIWPEYKNRTIFDITNNLSIVILALRPSDEGTYECVVLKYENDAFKREHLAEVTLSVKAD	MFI at 33.3 nM	MFI	42100

(I) variant CD80 IgV-Fc E35D/M47V/N48K (Fc fusion) VIHVTKEVKEVATLSCGHNVSVEELAQTRIYWQKDKKMVLTMMSGDVKIWPEYKNRTIFDITNNLSIVILALRPSDEGTYECVVLKYEKDAFKREHLAEVTLSVKAD
(II) variant CD80 IgV-Fc E35D/K89N (Fc fusion) VIHVTKEVKEVATLSCGHNVSVEELAQTRIYWQKDKKMVLTMMSGDMNIWPEYKNRTIFDITNNLSIVILALRPSDEGTYECVVLKYENDAFKREHLAEVTLSVKAD
(III) variant CD80 IgV-Fc M47V/V68M (Fc fusion) VIHVTKEVKEVATLSCGHNVSVEELAQTRIYWQKEKKMVLTMMSGDVNIWPEYKNRTIFDITNNLSIMILALRPSDEGTYECVVLKYEKDAFKREHLAEVTLSVKAD
QUERY: Arrange the 3 binders by rising MFI at 33.3 nM, starting with the smallest. The response must list the labels following the requested ordering.
RESULT: III, II, I
